Subject of test: pooled human IgG (human IgG1,2,3 and 4)
Reported values of Enzyme Activity Endpoint Assay: IgG for individual entries
Readout name: Enzyme Activity Endpoint Assay: IgG (ng/µL)

PRT-173 (protein) MANQEIRYSEVTPYHVTSVWTKGVTPPANFTQGEDVFHAPYVANQGWYDITKTFNGKDDLLCGAATAGNMLHWWFDQNKDQIKRYLEEHPEKQKINFNGEQMFDVKEAIDTKNHQLDSKLFEYFKEKAFPYLSTKHLGVFPDHVIDMFINGYRLSLTNHGPTPVKEGSKDPRGGIFDAVFTRGDQSKLLTSRHDFKEKNLKEISDLIKKELTEGKALGLSHTYANVRINHVINLWGADFDSNGNLKAIYVTDSDSNASIGMKKYFVGKNASGKVAISAKEIEGENIGAQVLGLFTLSTGQDSWNQTN; 0
PRT-448 (protein) MVTSVWTKGVTPPTDFIKGEDVFHAPYKAGQGWYDITKTFNGKDDLLCGAATAGNMLHWWFDQNKDQIEAYLKEHPEKQKINFNGEQMFDVKEAIDTKDDQTNSKLFEYFKEKAFPYLSTKHLGVFPDHVLDMFINGYRLSLTNHGPTPVKEGSKDPRGGIFDAVFTRGDQSKLLTSRHDLKNKTLKEISDLIKQELTEGKALALSHTYANVRINHVINLWGADFDSNGNLEAIYVTDSDSNASIGMKKYFVGVNSAGKVAISAKEIEDDNIGAQVLGLFTLSTGQDIWNQTNLEHHHHHH; 2150
